- Assay summary: Clinical pharmacokinetics of mirdametinib (Table A)
- Type: in vivo, human
- Condition notes: human, plasma, po, adult patients (≥18 years), steady state, BID oral dosing; read-out: Steady-state exposure Cmax [geometric mean (geometric % CV)]
Measured attribute: Cmax (ng/mL)
Entry rule: numbers only, all in ng/mL.

Request: For the compound O=C(NOC[C@H](O)CO)c1ccc(F)c(F)c1Nc1ccc(I)cc1F (single isomer, unassigned) [mirdametinib] , report Cmax.
Response: 188

###

- Assay summary: Clinical pharmacokinetics of mirdametinib (Table A)
- Type: in vivo, human
- Condition notes: human, plasma, oral, tablet; read-out: Tmax [median (range)]
Measured attribute: Tmax (min)
Entry rule: numbers only, all in min.

Request: For the compound O=C(NOC[C@H](O)CO)c1ccc(F)c(F)c1Nc1ccc(I)cc1F (single isomer, unassigned) , report Tmax.
Response: 49.8

###

- Assay summary: Clinical pharmacokinetics of mirdametinib (Table A)
- Format: in vivo, human
- Condition notes: human, plasma, po, pediatric patients (2 to <18 years), steady state, BID oral dosing; read-out: Steady-state exposure AUClast [geometric mean (geometric % CV)]
Measured attribute: AUC(0-t)
Could you give the number and then its unit, please?

Request: For the compound O=C(NOC[C@H](O)CO)c1ccc(F)c(F)c1Nc1ccc(I)cc1F (single isomer, unassigned) , report AUC(0-t).
Response: 459 ng·h/mL

###

- Assay summary: Human plasma protein binding
- Assay type: in vitro ADME
Measured attribute: fraction unbound

Request: For the compound O=C(NOC[C@H](O)CO)c1ccc(F)c(F)c1Nc1ccc(I)cc1F (single isomer, unassigned) [mirdametinib] , report fraction unbound.
Response: < 0.01

###

- Assay summary: Clinical pharmacokinetics of mirdametinib (Table A)
- Type: in vivo, human
- Condition notes: human, plasma, po, pediatric patients (2 to <18 years), steady state, BID oral dosing; read-out: Steady-state exposure Cmax [geometric mean (geometric % CV)]
Measured attribute: Cmax (ng/mL)
Entry rule: numbers only, all in ng/mL.

Request: For the molecule O=C(NOC[C@H](O)CO)c1ccc(F)c(F)c1Nc1ccc(I)cc1F (single isomer, unassigned) , report Cmax.
Response: 191
